Molecular target: AKT1 (Homo sapiens)
Sequence (P31749 whole entry): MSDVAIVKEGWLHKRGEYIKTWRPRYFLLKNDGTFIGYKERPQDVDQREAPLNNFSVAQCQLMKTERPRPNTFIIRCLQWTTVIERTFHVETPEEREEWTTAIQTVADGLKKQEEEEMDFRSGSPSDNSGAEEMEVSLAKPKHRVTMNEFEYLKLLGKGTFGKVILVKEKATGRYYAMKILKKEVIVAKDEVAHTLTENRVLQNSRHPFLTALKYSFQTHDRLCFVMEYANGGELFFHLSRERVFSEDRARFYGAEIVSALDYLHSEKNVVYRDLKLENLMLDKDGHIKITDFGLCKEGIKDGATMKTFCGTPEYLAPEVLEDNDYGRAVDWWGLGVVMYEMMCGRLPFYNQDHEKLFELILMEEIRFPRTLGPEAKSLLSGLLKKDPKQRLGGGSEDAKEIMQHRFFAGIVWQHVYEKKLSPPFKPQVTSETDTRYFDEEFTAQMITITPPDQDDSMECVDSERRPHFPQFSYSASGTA
Assay: AKT Kinase Assay (IMAP fluorescent polarisation) vs AKT1
Details: activated AKT1, FAM Crosstide substrate
Counter-ions that a name gives are not always drawn.
The entries below come with measured IC50 values attached.
Measurement Type: IC50

> print(dat)
                                    compound            result
 1  N#Cc1cccc(-c2nccc3c(=O)c(-c4ccc(C5(N)CCC5)cc4)c(-c4ccccc4)oc23)c1         ≤ 1000 nM
 2  Cn1ncc2ccc3c(=O)c(-c4ccc(C5(N)CCC5)nc4)c(-c4ccccc4)oc3c21 [Example 71, hydrochloride]         ≤ 1000 nM
 3  NC1(c2ccc(-c3c(-c4ccccc4)oc4c(ccc5nc(C(F)(F)F)[nH]c54)c3=O)cc2)CCC1         ≤ 1000 nM
 4  COc1ccc2c(=O)c(-c3ccc(C4(N)CCC4)cc3)c(-c3ccccc3)oc2c1C(N)=O [Example 50, hydrochloride]         ≤ 1000 nM
 5  CN1CCN(c2ccc3oc(-c4ccccc4)c(-c4ccc(C5(N)CCC5)cc4)c(=O)c3c2)CC1  1000 to 10000 nM
 6  COc1cc2c(=O)c(-c3ccc(C4(N)CCC4)cc3)c(-c3ccccc3)oc2cc1Br        > 10000 nM
 7  Cn1cnc2ccc3c(=O)c(-c4ccc(C5(N)CCC5)cc4)c(-c4ccccc4)oc3c21         ≤ 1000 nM
 8  NC1(c2ccc(-c3c(-c4ccccc4)oc4c(-c5ccccc5)nccc4c3=O)cc2)CCC1         ≤ 1000 nM
 9  NC1(c2ccc(-c3c(-c4ccccc4)oc4c(Br)cccc4c3=O)cc2)CCC1         ≤ 1000 nM
10  NC1(c2ccc(-c3c(-c4ccccc4)oc4ccc(-n5ccnc5)cc4c3=O)cc2)CCC1  1000 to 10000 nM
11  NC1(c2ccc(-c3c(-c4ccccc4)oc4c(N5CCNC(=O)C5)cccc4c3=O)cc2)CCC1         ≤ 1000 nM
12  COc1ccc2c(=O)c(-c3ccc(C4(N)CCC4)cc3)c(-c3ccccc3)oc2c1-c1cn[nH]c1         ≤ 1000 nM
13  Nc1ccc2c(=O)c(-c3ccc(C4(N)CCC4)cc3)c(-c3ccccc3)oc2c1O         ≤ 1000 nM
